Hey, just so you know, these numbers are from patent US7511119B2.

- study-target: HLA-A*0201 (Homo sapiens, UniProt P04439, D140Y/D185E/D98H/E176V/E277Q/G131W/G231S/I119V/I121R/I166T/I218V/L300P/L318F/N151K/N90K/P208A/P217A/Q86G/Q94H/R138H/R169H/T345S)
- assay-overview: Peptide binding using T2 cells;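 also: Read-out is peptide-induced stabilization of HLA-A*0201 on the cell surface, reflecting mainly Kon at limiting peptide levels and both Kon and Koff at saturating levels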
- test-context: half maximal binding of wild-type peptide relative to analog
Square brackets hold non-standard residues; d marks the D form. Peptide text beside a SMILES is read from it. Phe(4-NO2) = N[C@@H](Cc1ccc([N+](=O)[O-])cc1)C(=O)O; Phg = N[C@H](C(=O)O)c1ccccc1; Nle = CCCC[C@H](N)C(=O)O
observation-type: Relative affinity (1/RA)

compound="CC[C@H](C)[C@H](NC(=O)[C@H](Cc1ccc(O)cc1)NC(=O)[C@H](Cc1ccccc1)NC(=O)[C@@H](NC(=O)[C@H](CCCCN)NC(=O)[C@H](CCC(=O)O)NC(=O)[C@H](CO)NC(=O)[C@@H](NC(=O)[C@@H](N)Cc1ccccc1)C(C)C)[C@@H](C)CC)C(=O)O [SSX2 41-49 (K41F, A42V, V49I)]" value=1.6
compound="CCCC[C@H](NC(=O)[C@H](CO)NC(=O)[C@@H](NC(=O)[C@@H](N)Cc1ccccc1)C(C)C)C(=O)N[C@@H](CCCCN)C(=O)N[C@H](C(=O)N[C@@H](Cc1ccccc1)C(=O)N[C@@H](Cc1ccc(O)cc1)C(=O)N[C@H](C(=O)O)C(C)C)[C@@H](C)CC [SSX2 41-49 (K41F, A42V, E44Nle), FVS(Nle)KIFYV] (H-FVS[Nle]KIFYV-OH)" value=1.1
compound="CC[C@H](C)[C@H](NC(=O)[C@H](CCCCN)NC(=O)[C@H](CCC(=O)O)NC(=O)[C@H](CO)NC(=O)[C@@H](NC(=O)[C@@H](N)Cc1ccccc1)C(C)C)C(=O)N[C@@H](Cc1ccccc1)C(=O)N[C@H](C(=O)N[C@H](C(=O)O)C(C)C)c1ccccc1 [SSX2 41-49 (K41F, A42V, Y48Phg), FVSEKIF(Phg)V] (H-FVSEKIF[Phg]V-OH)" value=2.5
compound="CCCC[C@H](NC(=O)[C@H](CCCCN)NC(=O)[C@H](CCC(=O)O)NC(=O)[C@H](CO)NC(=O)[C@@H](NC(=O)[C@@H](N)Cc1ccccc1)C(C)C)C(=O)N[C@@H](Cc1ccccc1)C(=O)N[C@@H](Cc1ccc(O)cc1)C(=O)N[C@H](C(=O)O)C(C)C [SSX2 41-49 (K41F, A42V, I46Nle), FVSEK(Nle)FYV] (H-FVSEK[Nle]FYV-OH)" value=1.1
compound="CC[C@H](C)[C@H](NC(=O)[C@H](CCCCN)NC(=O)[C@H](CCC(=O)O)NC(=O)[C@H](CO)NC(=O)[C@H](C)NC(=O)[C@@H](N)Cc1ccc(OC)cc1)C(=O)N[C@@H](Cc1ccccc1)C(=O)N[C@@H](Cc1ccc(O)cc1)C(=O)N[C@H](C(=O)O)C(C)C [SSX2 41-49 (K41(O-methyl Tyr))] (H-Y(Me)ASEKIFYV-OH)" value=0.8
compound="CC[C@H](C)[C@H](NC(=O)[C@H](CCCCN)NC(=O)[C@H](CCC(=O)O)NC(=O)[C@H](CO)NC(=O)[C@H](C)NC(=O)[C@@H](N)Cc1ccc([N+](=O)[O-])cc1)C(=O)N[C@@H](Cc1ccccc1)C(=O)N[C@@H](Cc1ccc(O)cc1)C(=O)N[C@H](C(=O)O)C(C)C [SSX2 41-49 (K41(Phe-4NO2))] (H-[Phe(4-NO2)]ASEKIFYV-OH)" value=1.1
